experiment: Antiproliferative activity against human Hep3B cells at 0.02 ug/ml for 24 hrs by MTT assay
Type: functional, Hep 3B2
Criterion: inhibition at 0.02 µg/mL meeting or surpassing 1%. Met: YES. Not met: NO.

Below, 5 compounds whose answers are already recorded.
Cc1c(C(=O)Nc2ccc(-c3ccccc3)cc2)nc2ccccc2c1O = YES
Cc1c(C(=O)Nc2c(F)cc(-c3cccc(F)c3)cc2F)nc2ccc(OC(F)(F)F)cc2c1C(=O)O = YES
COc1ccc2nc(C(=O)Nc3ccc(-c4ccccc4)cc3)c(C)c(C(=O)O)c2c1 = NO
Cc1c(C(=O)Nc2c(F)cc(-c3cccc(F)c3)cc2F)nc2ccc(F)cc2c1O = NO
COc1cccc2c1C(=O)c1c(O)c3c(c(O)c1C2=O)C[C@@](O)(C(=O)CO)C[C@@H]3O[C@H]1C[C@H](N)[C@H](O)[C@H](C)O1 = NO

Item "Cc1c(C(=O)Nc2c(F)cc(-c3cccc(F)c3)cc2F)nc2ccc(C(F)(F)F)cc2c1C(=O)O" with inhibition at 0.02 µg/mL of 1% or above? YES

Reported inhibition at 0.02 µg/mL at or above 1%? "CCOc1ccc2nc(C(=O)Nc3c(F)cc(-c4cccc(F)c4)cc3F)c(C)c(C(=O)O)c2c1" NO

---

experiment: Antiproliferative activity against human Hep3B cells at 1.23 ug/ml for 24 hrs by MTT assay
Type: functional, Hep 3B2
test_readout: inhibition at 1.23 µg/mL (%)
The answer is to be given in %; state only the numeric part.

COc1ccc2nc(C(=O)Nc3c(F)cc(-c4cccc(F)c4)cc3F)c(C)c(O)c2c1 = 13.3
Cc1c(C(=O)Nc2c(F)cc(-c3cccc(F)c3)cc2F)nc2ccc(F)cc2c1O = 15.3
Cc1c(C(=O)Nc2ccc(-c3ccccc3)cc2)nc2ccccc2c1C(=O)O = 1.25

We next turn to a different molecule, shown below.
Give inhibition at 1.23 µg/mL for "Cc1ccc2nc(C(=O)Nc3c(F)cc(-c4cccc(F)c4)cc3F)c(C)c(C(=O)O)c2c1" 21.3

---

System: A-375
experiment: Antiproliferative activity against human A375 cells at 0.41 ug/ml for 24 hrs by MTT assay
Format: functional
assay_setup: A-375, 24 h
The reader will find reported inhibition at 0.41 µg/mL values listed item by item below.
The reply should be a number in %, with the unit left off.

Reference set (4 entries):
CCOc1ccc2nc(C(=O)Nc3c(F)cc(-c4cccc(F)c4)cc3F)c(C)c(C(=O)O)c2c1 = 11.2
CCOc1ccc2nc(C(=O)Nc3c(F)cc(-c4cccc(F)c4)cc3F)c(C)c(O)c2c1 = 2.05
Cc1c(-c2ccc(-c3ccccc3F)cc2)nc2ccc(F)cc2c1C(=O)O [BREQUINAR SODIUM] = 18.4
COc1ccc2nc(C(=O)Nc3c(F)cc(-c4cccc(F)c4)cc3F)c(C)c(C(=O)O)c2c1 = 3.87

Now for a further compound.
Retrieve inhibition at 0.41 µg/mL on A-375; query "COc1ccc2nc(C(=O)Nc3c(F)cc(-c4cccc(F)c4)cc3F)c(C)c(O)c2c1" 28.7

---

The compounds listed here are annotated with their inhibition at 0.05 µg/mL.
experiment: Antiproliferative activity against human Hep3B cells at 0.05 ug/ml for 24 hrs by MTT assay
Type: functional, Hep 3B2
Respond with the bare value in %.

Kindly indicate its recorded inhibition at 0.05 µg/mL. Item: "CCOc1ccc2nc(C(=O)Nc3c(F)cc(-c4cccc(F)c4)cc3F)c(C)c(C(=O)O)c2c1" 0.98

Tell me measured inhibition at 0.05 µg/mL for "COc1ccc2nc(C(=O)Nc3ccc(-c4ccccc4)cc3)c(C)c(O)c2c1" please. 1.23

Give the reported inhibition at 0.05 µg/mL for this compound. "Cc1c(C(=O)Nc2c(F)cc(-c3cccc(F)c3)cc2F)nc2ccc(C(F)(F)F)cc2c1C(=O)O" 1.68

---

Test system: A-375 (human melanoma)
experiment: Antiproliferative activity against human A375 cells for 24 hrs by MTT assay
assay_setup: A-375, 24 h
test_readout: IC50

CCOc1ccc2nc(C(=O)Nc3c(F)cc(-c4cccc(F)c4)cc3F)c(C)c(O)c2c1 = > 100 µM
Cc1c(C(=O)Nc2c(F)cc(-c3cccc(F)c3)cc2F)nc2ccc(F)cc2c1O = > 100 µM
Cc1ccc2nc(C(=O)Nc3c(F)cc(-c4cccc(F)c4)cc3F)c(C)c(O)c2c1 = > 100 µM
Cc1c(C(=O)Nc2c(F)cc(-c3cccc(F)c3)cc2F)nc2ccc(C(F)(F)F)cc2c1C(=O)O = 7.57 µM
Cc1c(C(=O)Nc2ccc(-c3ccccc3)cc2)nc2ccccc2c1C(=O)O = 83.5 µM

Here is the next item to consider.
Give the reported IC50 for this molecule. "CCOc1ccc2nc(C(=O)Nc3c(F)cc(-c4cccc(F)c4)cc3F)c(C)c(C(=O)O)c2c1" 5.8 µM

---

experiment: Antiproliferative activity against human Hep3B cells at 0.05 ug/ml for 24 hrs by MTT assay
Type: functional, Hep 3B2
test_readout: inhibition at 0.05 µg/mL (%)
Give the quantity in %, number only.

Please supply the value of reported inhibition at 0.05 µg/mL for the item "Cc1c(C(=O)Nc2c(F)cc(-c3cccc(F)c3)cc2F)nc2ccc(F)cc2c1O" 1.25

Answer with the recorded inhibition at 0.05 µg/mL of "Cc1ccc2nc(C(=O)Nc3c(F)cc(-c4cccc(F)c4)cc3F)c(C)c(C(=O)O)c2c1" only. 2.11

Query inhibition at 0.05 µg/mL for "Cc1c(C(=O)Nc2c(F)cc(-c3cccc(F)c3)cc2F)nc2ccc(OC(F)(F)F)cc2c1C(=O)O" 3.05

Answer with the recorded inhibition at 0.05 µg/mL of "Cc1c(C(=O)Nc2c(F)cc(-c3cccc(F)c3)cc2F)nc2ccc(F)cc2c1C(=O)O" only. 0.05

---

Parameter inhibition at 0.05 µg/mL: see the listing below.
experiment: Antiproliferative activity against human Hep3B cells at 0.05 ug/ml for 24 hrs by MTT assay
Format: functional, Hep 3B2
Give the quantity in %, number only.

Examples with their reported inhibition at 0.05 µg/mL follow.
CCc1ccc2nc(C(=O)Nc3c(F)cc(-c4cccc(F)c4)cc3F)c(C)c(O)c2c1 = 5.62
COc1ccc2nc(C(=O)Nc3ccc(-c4ccccc4)cc3)c(C)c(C(=O)O)c2c1 = 0.65
COc1ccc2nc(C(=O)Nc3c(F)cc(-c4cccc(F)c4)cc3F)c(C)c(C(=O)O)c2c1 = -0.66
CCc1ccc2nc(C(=O)Nc3c(F)cc(-c4cccc(F)c4)cc3F)c(C)c(C(=O)O)c2c1 = 0
Cc1c(C(=O)Nc2c(F)cc(-c3cccc(F)c3)cc2F)nc2ccc(C(F)(F)F)cc2c1O = 1.35
Cc1c(-c2ccc(-c3ccccc3F)cc2)nc2ccc(F)cc2c1C(=O)O [BREQUINAR SODIUM] = 2.05
COc1ccc2nc(C(=O)Nc3c(F)cc(-c4cccc(F)c4)cc3F)c(C)c(O)c2c1 = 1.35
Cc1c(C(=O)Nc2ccc(-c3ccccc3)cc2)nc2ccccc2c1O = 1.68
Cc1c(C(=O)Nc2c(F)cc(-c3cccc(F)c3)cc2F)nc2ccc(OC(F)(F)F)cc2c1O = 1.05

Supply reported inhibition at 0.05 µg/mL belonging to this molecule: "COc1cccc2c1C(=O)c1c(O)c3c(c(O)c1C2=O)C[C@@](O)(C(=O)CO)C[C@@H]3O[C@H]1C[C@H](N)[C@H](O)[C@H](C)O1" 1.56
